experiment: log P (pH 2.3); assay type: physicochemical
ATTRIBUTE MEASURED: logP

- COc1c(Cl)cc(OCC=C(Cl)Cl)cc1-c1nnc(CCCOCc2ccccc2)s1: 5.67
- COc1c(Cl)cc(OCC=C(Cl)Cl)cc1C(=O)NNC(=O)CCCOCc1ccccc1: 3.79
- COc1c(Cl)cc(OCC=C(Cl)Cl)cc1C1=NC(CO)CO1 (stereo not drawn): 2.05
